# targetUnderTest: GlG6PD::6PGL (fused bifunctional glucose-6-phosphate dehydrogenase::6-phosphogluconolactonase) (Giardia duodenalis, UniProt A8BWM5)
# Construct: recombinant fused GlG6PD::6PGL; activity of the G6PD domain measured
# Sequence (A8BWM5 entry or part of it): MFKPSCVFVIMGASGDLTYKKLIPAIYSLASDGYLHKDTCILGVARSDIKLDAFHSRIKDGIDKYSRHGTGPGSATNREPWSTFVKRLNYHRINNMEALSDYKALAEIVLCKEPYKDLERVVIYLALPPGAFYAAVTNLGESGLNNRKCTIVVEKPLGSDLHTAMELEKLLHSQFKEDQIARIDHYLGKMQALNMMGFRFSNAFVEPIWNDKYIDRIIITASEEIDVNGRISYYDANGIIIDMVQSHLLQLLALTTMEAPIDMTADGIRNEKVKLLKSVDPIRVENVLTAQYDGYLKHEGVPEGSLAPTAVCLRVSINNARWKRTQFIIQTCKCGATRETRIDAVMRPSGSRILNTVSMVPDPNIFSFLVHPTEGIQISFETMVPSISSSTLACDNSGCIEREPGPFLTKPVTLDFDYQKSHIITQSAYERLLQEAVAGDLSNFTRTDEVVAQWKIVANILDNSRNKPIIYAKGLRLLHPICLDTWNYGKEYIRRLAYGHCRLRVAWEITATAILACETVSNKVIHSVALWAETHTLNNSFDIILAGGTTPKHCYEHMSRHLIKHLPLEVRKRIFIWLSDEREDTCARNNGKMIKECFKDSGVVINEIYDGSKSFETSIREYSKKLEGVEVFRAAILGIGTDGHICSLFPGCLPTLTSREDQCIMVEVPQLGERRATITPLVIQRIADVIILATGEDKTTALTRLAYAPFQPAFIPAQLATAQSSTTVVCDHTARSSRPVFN
# assaySummary: residual G6PD activity at […] nm after […] h preincubation at […] °C with purified recombinant enzyme; k2 […] ^-1 s^-1; intrinsic and ANS fluorescence changes
reportedMetric: pIC50
pIC50 is a log-scale quantity: -log10 of the concentration expressed in molar.

Q) # get_value(readout='pIC50', item= CC(=O)Oc1ccccc1C(=O)Nc1ncc([N+](=O)[O-])s1 )
A) 4.40
